Form field: Binding (FOI) (one value per entry).
Molecular target: T1, human CD3 expressed on cells (Jurkat cells; human primary T cells) (human, UniProt P07766 23-207; P04234 22-171; P09693 23-182)
T1 construct: whole, on cells
T1 sequence (P07766 23-207, chain 1 of 3): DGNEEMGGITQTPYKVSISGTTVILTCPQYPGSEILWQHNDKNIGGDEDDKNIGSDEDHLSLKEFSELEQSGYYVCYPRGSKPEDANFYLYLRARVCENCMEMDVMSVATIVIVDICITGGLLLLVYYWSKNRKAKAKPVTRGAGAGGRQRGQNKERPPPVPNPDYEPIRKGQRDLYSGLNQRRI
T1 sequence (P04234 22-171, chain 2 of 3): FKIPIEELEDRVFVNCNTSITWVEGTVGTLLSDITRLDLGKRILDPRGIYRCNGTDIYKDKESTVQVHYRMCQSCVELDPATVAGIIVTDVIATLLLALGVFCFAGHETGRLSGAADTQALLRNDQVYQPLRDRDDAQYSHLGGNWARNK
T1 sequence (P09693 23-182, chain 3 of 3): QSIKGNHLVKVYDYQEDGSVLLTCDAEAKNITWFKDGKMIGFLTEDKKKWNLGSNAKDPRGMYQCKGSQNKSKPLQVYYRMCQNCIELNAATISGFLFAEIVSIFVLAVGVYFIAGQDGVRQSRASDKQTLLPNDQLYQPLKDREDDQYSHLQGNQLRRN
Assay: flow cytometry, 25 nM, Jurkat cells
measuredMetric: Binding (FOI)

1) mAb 262 (antibody, V domains shown, VH/VL only) VH: EVRLLESGGGLVQPGGSLRLSCAASGFTFRSSSMAWVRQDPGKGLEWVTGIRGSGGRTYDADSVKGRFTISRDNSKNTLYLQMNSLRAEDTAEYYCAKLYDYYNDYMDVWGKGTTVTVSS VL: SYELTQPLSVSVALGQTARITCGGNNIGSKNVHWYQQKPGQAPVLVIYRDSNRPSGIPERFSGSNSGNTATLTISRAQAGDEADYYCQVWDSSTAVFGGGTQLTAL = 165
2) mAb 248 (antibody, V domains shown, VH/VL only) VH: QVKLVESGGGVVQPGRSLRLSCVASGFTFSGYGMHWVRQAPGKGLEWVAIIYYDGKNKYYVDSVKGRFTISRDNSKNTLYLQLNSLRAEDTAVYYCVRGPGYNWFDHWGQGTLVTVAS VL: EIVLTQSPDFQSVTPKEKVTITCRASQSIGSSLHWYQQKPDQSPKLLIKYASQSFSGVPSRFSGSGSGTDFTLTINSLEAEDAATYYCHQSSSLPYTFGQGTKLEIK = 174
3) mAb 267 (antibody, V domains shown, VH/VL only) VH: QVQLQQSGPGLVKPSQTLSLTCAISGDSISSNYASWNWIRQSPSRGLEWLGRTYYRSKWYNDFAVSVKSRIIINPDTSRNQFSLHLNSVTPEDTAIYYCAREANGRGYFYYMDVWGKGTTVTVSS VL: EIVLTQSPDFQSVTPKEKVTITCRASQSIGSSLHWYQQKPDQSPKLLIKYASQSISGVPSRFSGRGSGTDFTLTINSLEAEDAAAYFCHQSSGSPHTFGGGTKVEIK = 61.3
